- System: SF-539
- Run Description: NCI tumour cell line growth inhibition, 48 h
Activity calls are given as the source filed them. Cut-off read from the data, not from the text of the source: active = GI50 up to about 1.1 µM and inactive = higher.
Please answer using one outcome listed in TRUE for active, FALSE for inactive

Enquiry: Field: outcome | Entry: CCN(CC)CC/N=c1\c2cc(OC)ccc2[nH]c2c([N+](=O)[O-])ccc(NCCN(CC)CC)c12
Return: TRUE

Enquiry: Field: outcome | Entry: C1CCNCC1.S=C(S)N1CCCCC1
Return: FALSE

Enquiry: Field: outcome | Entry: CC(=O)OCC1OC(n2c(-c3ccc(N)cc3)cc(-c3ccco3)c(C#N)c2=O)C(OC(C)=O)C(OC(C)=O)C1OC(C)=O (centres undefined)
Return: FALSE

Enquiry: Field: outcome | Entry: C=C1CC(OC)(C(O)C(=O)N[C@H]2OCO[C@H]3C2O[C@H](C[C@@H](CO)OC)C(C)(C)C3OC)O[C@H](C)[C@@H]1C (some centres undefined)
Return: TRUE

Enquiry: Field: outcome | Entry: COc1cc(O)c2c(c1)C(=O)c1cc3c(c(O)c1C2=O)C(OC1OC(C)C(OC)C(O)C1OC)C(OC)C(C)(O)C3=O (centres undefined)
Return: FALSE

Enquiry: Field: outcome | Entry: Oc1ncc(N(CCCl)CCCl)c(O)n1
Return: FALSE

Enquiry: Field: outcome | Entry: COc1ccc2c(c1[N+](=O)[O-])CC[C@@H]1[C@@H]2CC[C@]2(C)C(=O)CC[C@@H]12
Return: FALSE

Enquiry: Field: outcome | Entry: COc1cc2c(cc1Oc1c(Oc3c(O)c(OC)cc4c3C(CC(C)C)N(C)CC4)c(OC)cc3c1C(CC(C)C)N(C)CC3)C(CC(C)C)N(C)CC2 (centres undefined)
Return: TRUE

Enquiry: Field: outcome | Entry: O=C(/C(=N\Nc1ccc([N+](=O)[O-])cc1[N+](=O)[O-])NC12CC3CC(CC(C3)C1)C2)C(Br)C(=O)c1ccccc1 (centres undefined)
Return: FALSE

Enquiry: Field: outcome | Entry: Cc1c(F)c(NC(=O)CN(C)C)c2c(=O)cc(-c3ccc(NC(=O)CN(C)C)c(F)c3)oc2c1F
Return: FALSE

Enquiry: Field: outcome | Entry: COc1cccc(CCN2CCN(CCCc3ccccc3)CC2)c1
Return: FALSE

Enquiry: Field: outcome | Entry: CCOc1cc(NC(C)=O)ccc1C(=O)NN1C(=O)/C(=C/c2ccc(Cl)cc2)N=C1c1ccccc1
Return: FALSE

Enquiry: Field: outcome | Entry: CC1(C2COC(=O)C2)SCCCS1 (centres undefined)
Return: FALSE

Enquiry: Field: outcome | Entry: CCO/N=C(/CC)c1ccc(Br)s1
Return: FALSE

Enquiry: Field: outcome | Entry: Cc1ccnc2c1c(=O)c1ccccc1n2C
Return: FALSE

Enquiry: Field: outcome | Entry: Cc1[nH]c(=O)nc(N/N=C/c2ccc(O)cc2)c1C(=O)Nc1ccc(O)cc1
Return: FALSE

Enquiry: Field: outcome | Entry: c1ccc(CN2CCC3(CC2)SSC2(CCN(Cc4ccccc4)CC2)SS3)cc1
Return: FALSE

Enquiry: Field: outcome | Entry: COc1ccc2cc(CNCCCCCCNC(=O)Nc3cccc4ccccc34)ccc2c1
Return: FALSE

Enquiry: Field: outcome | Entry: O=C(CNC(c1ccccc1)(c1ccccc1)c1ccccc1)NC1CCCCC1NC(=O)CNC(c1ccccc1)(c1ccccc1)c1ccccc1 (centres undefined)
Return: FALSE

* * *

- System: RXF 393
- Run Description: NCI tumour cell line growth inhibition, 48 h
Calls of active or inactive are those of the source. No stated cut-off is given here; in the data, active = GI50 up to about 1.1 µM and inactive = higher. Positions of bridges follow the written chain, without caps; N, C: chain ends. Non-standard residues stand in square brackets, D forms with d. Residues, ends and D or L forms follow the SMILES beside them. *: point of attachment. Cbz = O=C(OCc1ccccc1)*; Aib = CC(C)(N)C(=O)O; OBn = c1ccc(CO*)cc1; βAla = NCCC(=O)O
I'd appreciate it if you could supply GI50 values for the items below.

Enquiry: Notebook: pull reported GI50 for RXF 393, entry CCOc1ccc2[nH]c3c(C)c4ccncc4c(C)c3c2c1
Return: 1.54 µM (inactive)

Enquiry: Notebook: pull reported GI50 for RXF 393, entry CC(=O)O[C@@H](c1nccn1Cc1ccccc1)[C@H]1OC(C)(C)O[C@@H]1[C@H]1COC(C)(C)O1
Return: > 100 µM (inactive)

Enquiry: Notebook: pull reported GI50 for RXF 393, entry Cc1nc2c(n1CCCl)C(=O)c1ccccc1C2=O
Return: 19.5 µM (inactive)

Enquiry: Notebook: pull reported GI50 for RXF 393, entry Cc1cc2nc3c(C)c4ccccc4c(C)n3c2cc1C
Return: 2.84 µM (inactive)

Enquiry: Notebook: pull reported GI50 for RXF 393, entry CC1(C)NC(=O)C(NC(=O)C(CC(=O)OCc2ccccc2)NC(=O)OCc2ccccc2)CCCCNC(=O)CCNC1=O (stereo not given) (Cbz-D(OBn)K[Aib][βAla]; lactam 2-C; configuration not given here)
Return: > 100 µM (inactive)

Enquiry: Notebook: pull reported GI50 for RXF 393, entry CN(C)Cc1cc(C(=O)/C=C/c2ccccc2Cl)cc(CN(C)C)c1O
Return: 17.1 µM (inactive)

Enquiry: Notebook: pull reported GI50 for RXF 393, entry CCOc1cc2c(cc1O)C(O)C[C@@H]1[C@@H]2CC[C@]2(C)[C@@H](O)CC[C@@H]12 (stereo not given in full)
Return: 1.44 µM (inactive)

Enquiry: Notebook: pull reported GI50 for RXF 393, entry C=C1C(=O)OC2C1CCC(C)C1(O)C=CC(=O)C21C (stereo not given)
Return: 9.31 µM (inactive)

Enquiry: Notebook: pull reported GI50 for RXF 393, entry Brc1ccc2[nH]cc(-c3csc(-c4ccccn4)n3)c2c1
Return: 6.03 µM (inactive)

Enquiry: Notebook: pull reported GI50 for RXF 393, entry COc1cccc(CCN2CCN(CCCc3ccccc3)CC2)c1
Return: 71 µM (inactive)

* * *

I'd appreciate it if you could supply GI50 values for the items below.
- System: NCI-H460
- Run Description: NCI tumour cell line growth inhibition, 48 h
Activity calls are given as the source filed them. Rule as the data show it: active = GI50 up to about 1.1 µM and inactive = higher.

Enquiry: Form field: reported GI50 of O=C1c2ccccc2-c2c1c(-c1ccc([N+](=O)[O-])cc1)nc1ccc3ccccc3c21
Return: > 100 µM (inactive)

Enquiry: Form field: reported GI50 of CC(=O)NN1C(=O)C(Cc2ccccc2)c2ccccc21 (stereo unspecified)
Return: > 100 µM (inactive)

Enquiry: Form field: reported GI50 of CCOP(=O)(Nc1ccc2oc(=O)c3ccccc3c2c1)OCC
Return: > 100 µM (inactive)

Enquiry: Form field: reported GI50 of CC(=O)NC(CCCCNC(=O)OCc1ccccc1)C(=O)NCc1ccccc1 (stereo unspecified)
Return: > 100 µM (inactive)

Enquiry: Form field: reported GI50 of O=c1c2ccccc2sc2c(CO)ccc(NCCN3CCCCC3)c12
Return: 2.68 µM (inactive)

Enquiry: Form field: reported GI50 of O=C(O)c1cc2ccccc2c(Cc2c(O)c(C(=O)O)cc3ccccc23)c1O
Return: > 100 µM (inactive)

Enquiry: Form field: reported GI50 of CC1N(C)C(=O)OC12CCN(CCCC(=O)c1ccc(F)cc1)CC2 (stereo unspecified)
Return: > 100 µM (inactive)

Enquiry: Form field: reported GI50 of CCSc1nc(-c2ccc(OC)cc2)c(C#N)c(=O)n1C1OCC(OC(C)=O)C(OC(C)=O)C1OC(C)=O (stereo unspecified)
Return: > 100 µM (inactive)

Enquiry: Form field: reported GI50 of COc1ccc2c(c1C)C(=O)C(O)(CC=C(C)C)O2 (stereo unspecified)
Return: > 100 µM (inactive)

Enquiry: Form field: reported GI50 of O=C(Nc1ccc(F)cc1)c1cc2ccc(O)cc2o/c1=N\c1ccccc1F
Return: 18.8 µM (inactive)

Enquiry: Form field: reported GI50 of CC(C)(C)c1ccc(O)c(C(O)c2ccccn2)c1 (stereo unspecified)
Return: 48.5 µM (inactive)

* * *

I'd appreciate it if you could supply GI50 values for the items below.
- Tested on: SK-MEL-5
- Run Description: NCI tumour cell line growth inhibition, 48 h
Active and inactive are the calls of the source. No stated cut-off is given here; in the data, active = GI50 up to about 1.1 µM and inactive = higher. Positions of bridges follow the written chain, without caps; N, C: chain ends. Non-standard residues stand in square brackets, D forms with d. Residues, ends and D or L forms follow the SMILES beside them. *: point of attachment. Cbz = O=C(OCc1ccccc1)*; Aib = CC(C)(N)C(=O)O; OBn = c1ccc(CO*)cc1; βAla = NCCC(=O)O

Enquiry: Form field: reported GI50 of Cc1ccc2c(c1)C(=O)c1ccc(C)nc1C2=O
Return: 13.2 µM (inactive)

Enquiry: Form field: reported GI50 of COc1cc(/C=C2\C(=O)N(C(=O)Cc3ccccc3)N=C2C)cc(OC)c1OC
Return: > 100 µM (inactive)

Enquiry: Form field: reported GI50 of O=C1C(=CNC(=S)c2ccccc2)C(=O)c2ccccc21
Return: 58.9 µM (inactive)

Enquiry: Form field: reported GI50 of CC1(C)NC(=O)C(NC(=O)C(CC(=O)OCc2ccccc2)NC(=O)OCc2ccccc2)CCCCNC(=O)CCNC1=O (centres undefined) (Cbz-D(OBn)K[Aib][βAla]; lactam 2-C; configuration not given here)
Return: > 100 µM (inactive)

Enquiry: Form field: reported GI50 of C=C(Cl)C(C)(Cl)CCC(Br)C(C)(C)Cl (centres undefined)
Return: 16.9 µM (inactive)

Enquiry: Form field: reported GI50 of COC1=CC(O)(CC(N)=O)c2ccccc2C1=O (centres undefined)
Return: > 100 µM (inactive)

Enquiry: Form field: reported GI50 of CCOC(=O)Nc1ccc(S(=O)(=O)I)cc1.CCOC(=O)Nc1ccc(S(=O)(=O)I)cc1.CNC(=O)N=O.NC(=O)OCCCl
Return: > 100 µM (inactive)

Enquiry: Form field: reported GI50 of Cc1cc(S(=O)(=O)Nc2nc(N)nc(N(C)C)n2)c(S)cc1Cl
Return: > 10 µM (inactive)

Enquiry: Form field: reported GI50 of CCOC(=O)c1nc2ccccc2nc1NCc1ccc(Cl)cc1Cl
Return: > 100 µM (inactive)
